Target: T1, RBFOX1 RRM RbFoxmut (Fox-RRM*) (Homo sapiens, UniProt Q9NWB1 109-208, R118D;E147R;N151S;E152T)
T1 sequence: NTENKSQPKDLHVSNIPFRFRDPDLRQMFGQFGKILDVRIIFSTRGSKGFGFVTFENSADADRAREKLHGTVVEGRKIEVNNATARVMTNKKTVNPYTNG
Assay: EMSA; HiTS-Eq, 1 nM pool, 10 min; buffer printed only for the single-RNA assays: 10 mM Tris pH 7.5, 150 mM NaCl, 3.4 mM EDTA, 0.001% NP-40, 30 C
Details: tags: His6 N-terminal (pET28a); label: 5' 32P
In all, about 16,000 sequences were measured (“ka relative to ugcaugu”: median about 0.096, highest 2% from about 0.35 on). Many of the other results were omitted from the sample, so the highest values are more common in it than they were.

binder | binding signal
AUACAAA (DNA:RNA) RNA: GGGAGACCGGAAUUCAGAUUGUCCAUACAAAUUAAAUCCCGUCGUAGCCACCA DNA 1: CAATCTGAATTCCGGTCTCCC DNA 2: TGGTGGCTACGACGGGATT | 0.0876 KA relative to UGCAUGU
AGUUGGC (DNA:RNA) RNA: GGGAGACCGGAAUUCAGAUUGUCCAGUUGGCUUAAAUCCCGUCGUAGCCACCA DNA 1: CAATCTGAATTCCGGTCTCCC DNA 2: TGGTGGCTACGACGGGATT | 0.107 KA relative to UGCAUGU
